Target or system: T1, hPRLR.mFc (soluble dimeric human PRLR) (Homo sapiens, UniProt P16471)
T1 construct: dimeric (hPRLR.mFc)
T1 sequence (P16471 with tags, fused parts or gaps): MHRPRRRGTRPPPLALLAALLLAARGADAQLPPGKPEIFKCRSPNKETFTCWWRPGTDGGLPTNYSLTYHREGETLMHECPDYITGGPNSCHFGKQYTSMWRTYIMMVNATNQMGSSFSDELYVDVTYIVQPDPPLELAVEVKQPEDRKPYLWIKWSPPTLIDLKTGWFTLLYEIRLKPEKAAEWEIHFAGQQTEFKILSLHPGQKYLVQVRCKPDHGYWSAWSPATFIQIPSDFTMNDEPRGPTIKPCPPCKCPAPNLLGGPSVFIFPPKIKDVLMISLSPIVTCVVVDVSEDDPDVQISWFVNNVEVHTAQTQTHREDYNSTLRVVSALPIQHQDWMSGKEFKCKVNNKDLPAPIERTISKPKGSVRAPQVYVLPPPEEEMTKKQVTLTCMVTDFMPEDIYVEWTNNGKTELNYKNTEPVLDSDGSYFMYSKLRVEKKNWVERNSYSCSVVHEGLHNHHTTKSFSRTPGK
Assay comment: Surface plasmon resonance (Biacore T200), mAb-capture format
Format: binding
Applied conditions: 25° C., antibody-capture format, analyte hPRLR.mFc
Recorded endpoint: pKd
Answers are plain numbers, as −log10 of the molar value.

Ask | Which pKd value belongs to H1H6953N: human IgG1 Fc form of H1M6953N; anti-PRLR; HCVR/LCVR SEQ ID NOs 274/282 (antibody, V domains shown, human IgG1 Fc) VH: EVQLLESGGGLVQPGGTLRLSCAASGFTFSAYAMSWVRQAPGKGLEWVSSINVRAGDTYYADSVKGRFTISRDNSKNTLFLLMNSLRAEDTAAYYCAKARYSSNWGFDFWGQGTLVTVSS VL: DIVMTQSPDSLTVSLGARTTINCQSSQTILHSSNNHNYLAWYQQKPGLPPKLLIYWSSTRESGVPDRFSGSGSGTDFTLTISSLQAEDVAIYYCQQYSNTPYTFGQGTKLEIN ?
Reply | 10.17

Sourced from patent US9688764B2
